Hey, just so you know, these numbers are from patent US7875647B2.

Biological target: Cannabinoid-1 receptor (CB1R) (Rattus norvegicus, UniProt P20272)
Construct: The tissue obtained from the brain of SD rats was homogenized; from tissue; host or cells: brain of SD rats (membrane pellet of the homogenate)
Sequence (P20272 whole entry): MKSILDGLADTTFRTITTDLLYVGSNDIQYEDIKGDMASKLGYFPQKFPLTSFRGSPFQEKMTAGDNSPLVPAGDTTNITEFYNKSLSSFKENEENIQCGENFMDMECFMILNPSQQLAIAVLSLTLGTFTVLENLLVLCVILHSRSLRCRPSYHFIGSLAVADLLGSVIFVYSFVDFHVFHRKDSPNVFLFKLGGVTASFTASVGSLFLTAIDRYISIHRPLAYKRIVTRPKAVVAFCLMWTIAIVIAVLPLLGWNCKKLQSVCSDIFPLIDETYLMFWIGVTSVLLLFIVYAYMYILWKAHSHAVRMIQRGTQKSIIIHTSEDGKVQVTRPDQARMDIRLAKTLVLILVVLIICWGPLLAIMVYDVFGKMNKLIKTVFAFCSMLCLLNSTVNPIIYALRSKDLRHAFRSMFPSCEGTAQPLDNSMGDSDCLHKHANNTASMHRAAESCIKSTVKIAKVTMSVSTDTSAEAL
Experiment: Cannabinoid-1 receptor (CB1R) binding affinity assay ([3H]CP-55940, rat CB-1 receptor binding protocol)
Details: brain tissue of SD rats, [3H]CP-55940, 30° C. 60 min; read-out: IC50
reported_metric: log10 of IC50 (log10 of the value in nM)
Hi team, quick reminder: these entries are log10 of IC50 (nM).

1. C=C(C)c1c(-c2nnc(C(C)(C)C)o2)nn(-c2ccc(Cl)cc2Cl)c1-c1ccc(Cl)cc1 : 0.68

For the 5 molecules below, give their log10 of IC50 values.
1. Cc1c(-c2nnc(C3CCCCCC3)s2)nn(-c2ccc(Cl)cc2Cl)c1-c1ccc(Br)cc1
2. Cc1c(-c2nnc(-c3cccs3)o2)nn(-c2ccc(Cl)cc2Cl)c1-c1ccc(Cl)cc1
3. Clc1ccc(-c2c(Cn3cncn3)c(-c3nnc(C4CCC4)s3)nn2-c2ccc(Cl)cc2Cl)cc1
4. CC(C)(C)c1nnc(-c2nn(-c3ccc(Cl)cc3Cl)c(-c3ccc(Br)cc3)c2CF)o1
5. O=Cc1c(-c2nnc(C3(c4ccc(Cl)cc4)CC3)o2)nn(-c2ccc(Cl)cc2Cl)c1-c1ccc(Cl)cc1

1: 1.49; 2: 1.98; 3: 0.34; 4: 0.90; 5: 0.73

For the 4 molecules below, give their log10 of IC50 values.
1. CCCOC(C)(C)c1nnc(-c2nn(-c3ccc(Cl)cc3Cl)c(-c3ccc(Cl)cc3)c2C)o1
2. Cc1c(-c2nnc(C3(c4ccc(Cl)cc4)CC3)o2)nn(-c2ccccc2Cl)c1-c1ccc(Cl)cc1
3. CCc1c(-c2nnc(C3(c4cccc(Cl)c4)CC3)s2)nn(-c2ccc(Cl)cc2Cl)c1-c1ccc(Br)cc1
4. Cc1c(-c2nnc(C3CCOCC3)s2)nn(-c2ccc(Cl)cc2Cl)c1-c1ccc(Cl)cc1

1: 1.62; 2: 0.87; 3: 0.79; 4: 1.73

For the 3 molecules below, give their log10 of IC50 values.
1. Cc1c(-c2nnc(CC(F)(F)F)o2)nn(-c2ccc(Cl)cc2Cl)c1-c1ccc(Cl)cc1
2. CC(C)(C)c1nnc(-c2nn(-c3ccc(Cl)cc3Cl)c(-c3ccc(Br)cc3)c2COc2ccc(C(F)(F)F)cn2)s1
3. CCCC(C)c1nnc(-c2nn(-c3ccc(Cl)cc3Cl)c(-c3ccc(Br)cc3)c2CC)s1 (stereo not drawn)

[1.87, 1.50, 0.96]

For the 2 molecules below, give their log10 of IC50 values.
1. CC(=O)OCC(C)(C)c1nnc(-c2nn(-c3ccc(Cl)cc3Cl)c(-c3ccc(Cl)cc3)c2C)o1
2. Cc1c(-c2nnn(C(C)C)n2)nn(-c2ccc(Cl)cc2Cl)c1-c1ccc(Cl)cc1

1. 1.74
2. 2.00

---

Target: Cannabinoid-1 receptor (CB1R) (Rattus norvegicus, UniProt P20272)
Construct: The tissue obtained from the brain of SD rats was homogenized; from tissue; host or cells: brain of SD rats (membrane pellet of the homogenate)
Experiment: Cannabinoid-1 receptor (CB1R) binding affinity assay ([3H]CP-55940, rat CB-1 receptor binding protocol)
Details: brain tissue of SD rats, [3H]CP-55940, 30° C. 60 min; read-out: IC50
pIC50: −log10 of the molar value.
Label YES when pIC50 is at or above 7; anything below gets NO.

1) Cc1c(-c2nnc(C(C)(C)COCc3ccccc3)o2)nn(-c2ccc(Cl)cc2Cl)c1-c1ccc(Cl)cc1 : NO
2) CCCCC(OCc1ccccc1)c1nnc(-c2nn(-c3ccc(Cl)cc3Cl)c(-c3ccc(Cl)cc3)c2C)o1 (stereo not shown) : NO
3) Clc1ccc(-c2c(Cl)c(-c3nnc(C4CCCCC4)o3)nn2-c2ccc(Cl)cc2Cl)cc1 : NO
4) CCC(C)c1nnc(-c2nn(-c3ccc(Cl)cc3Cl)c(-c3cccc(Cl)c3)c2C)s1 (stereo not shown) : NO

Kindly determine if pIC50 recorded for "Cc1c(-c2ncc(CC(C)C)o2)nn(-c2ccc(Cl)cc2Cl)c1-c1ccc(Cl)cc1" is above or exactly 7.
YES

Kindly determine if pIC50 recorded for "CCn1nc(-c2nn(-c3ccc(Cl)cc3Cl)c(-c3ccc(Cl)cc3)c2C)nc1C(C)C" is above or exactly 7.
NO

Kindly determine if pIC50 recorded for CCc1c(-c2nnc(C(C)CC)s2)nn(-c2ccc(Cl)cc2Cl)c1-c1ccc(Cl)cc1 (stereo not shown) is above or exactly 7.
YES

Kindly determine if pIC50 recorded for "Cc1c(-c2n[nH]c(CC3CC3)n2)nn(-c2ccc(Cl)cc2Cl)c1-c1ccc(Cl)cc1" is above or exactly 7.
NO

Kindly determine if pIC50 recorded for "CC(C)(C)c1nnc(-c2nn(-c3ccc(Cl)cc3Cl)c(-c3ccc(Cl)cc3)c2C=O)o1" is above or exactly 7.
YES

Kindly determine if pIC50 recorded for CCc1c(-c2nnc(C(C)CC)s2)nn(-c2ccc(Cl)cc2Cl)c1-c1ccc(Br)cc1 (stereo not shown) is above or exactly 7.
YES

---

Target: Cannabinoid-1 receptor (CB1R) (Rattus norvegicus, UniProt P20272)
Construct: The tissue obtained from the brain of SD rats was homogenized; from tissue; host or cells: brain of SD rats (membrane pellet of the homogenate)
Assay: Cannabinoid-1 receptor (CB1R) binding affinity assay ([3H]CP-55940, rat CB-1 receptor binding protocol)
Conditions: brain tissue of SD rats, [3H]CP-55940, 30° C. 60 min; read-out: IC50
Protocol: The tissue obtained from the brain of SD rats was homogenized with a Dounce homogenate system in TME (50 mM Tris, 3 mM MgCl2 and 1 mM EDTA, pH 7.4) at 4° C., and the homogenate was centrifuged at 48,000 g for 30 min. at 4° C. […] The tissue concentrations were determined by Bradford protein analysis, and 148 μl of brain tissue of the required concentration was added to the plate. […]
Assignment: determine reported pIC50 for the given compounds.
Give bare numbers, as −log10 of the molar value.

Example cases with answers are listed next.
1. CCc1c(-c2nnc(C3(c4ccc(Cl)cc4Cl)CC3)o2)nn(-c2ccc(Cl)cc2Cl)c1-c1ccc(Br)cc1 : 8.16
2. Cc1c(-c2nnc(C(C)CC3CCC3)o2)nn(-c2ccc(Cl)cc2Cl)c1-c1ccc(Cl)cc1 (stereo not shown) : 7.95

For the 5 compounds below, give their pIC50 values.
1. Cc1c(-c2nnc(C3(c4ccc(Cl)cc4)CCC3)o2)nn(-c2cccc(Cl)c2Cl)c1-c1ccc(Cl)cc1
2. CCc1c(-c2nnc(C3(C#N)CC3)s2)nn(-c2ccc(Cl)cc2Cl)c1-c1ccc(Cl)cc1
3. CC(=O)Oc1c(-c2nnc(C(C)(C)C)o2)nn(-c2ccc(Cl)cc2Cl)c1-c1ccc(Cl)cc1
4. CCc1c(-c2nnc(C3(c4ccc(Cl)cc4)CCC3)o2)nn(-c2ccccc2Cl)c1-c1ccc(Cl)cc1
5. Cc1c(-c2nnc(C3CCCO3)o2)nn(-c2ccc(Cl)cc2Cl)c1-c1ccc(Cl)cc1 (stereo not shown)

6.85
6.84
7.24
8.24
7.22

---

Molecular target: Cannabinoid-1 receptor (CB1R) (Rattus norvegicus, UniProt P20272)
Construct: The tissue obtained from the brain of SD rats was homogenized; from tissue; host or cells: brain of SD rats (membrane pellet of the homogenate)
Experiment: Cannabinoid-1 receptor (CB1R) binding affinity assay ([3H]CP-55940, rat CB-1 receptor binding protocol)
Conditions: brain tissue of SD rats, [3H]CP-55940, 30° C. 60 min; read-out: IC50
Assignment: determine reported pIC50 for the given compounds.
One number for each entry, as −log10 of the molar value.

1. Cc1c(-c2nnnn2Cc2ccccn2)nn(-c2ccc(Cl)cc2Cl)c1-c1ccc(Cl)cc1 : 6.98

For the 5 compounds below, give their pIC50 values.
1. CCN(C)Cc1c(-c2nnc(C(C)(C)C)o2)nn(-c2ccc(Cl)cc2Cl)c1-c1ccc(Cl)cc1
2. Cc1c(-c2nnc(C(C)(C)C)s2)nn(-c2ccc(Cl)cc2Cl)c1-c1ccccc1
3. CCCCC(C)(C)c1nnc(-c2nn(-c3ccc(Cl)cc3Cl)c(-c3ccc(Cl)cc3)c2C)s1
4. CC(C)(C)c1nnc(-c2nn(-c3ccc(Cl)cc3Cl)c(-c3ccc(Br)cc3)c2CF)s1
5. Cc1c(-c2n[nH]c(-c3ccco3)n2)nn(-c2ccc(Cl)cc2Cl)c1-c1ccc(Cl)cc1

6.64
6.80
7.56
8.05
6.27

For the 5 compounds below, give their pIC50 values.
1. CCC(C)(C)c1nnc(-c2nn(-c3ccc(Cl)cc3Cl)c(-c3ccc(Cl)cc3)c2Br)s1
2. CC(F)c1c(-c2nnc(C(C)(C)C)o2)nn(-c2ccc(Cl)cc2Cl)c1-c1ccc(Cl)cc1 (stereo not drawn)
3. Cc1c(-c2nnnn2C2CC2)nn(-c2ccc(Cl)cc2Cl)c1-c1ccc(Cl)cc1
4. Cc1c(-c2nnc(C(C)C3CCCCC3)o2)nn(-c2ccc(Cl)cc2Cl)c1-c1ccc(Cl)cc1 (stereo not drawn)
5. CC(C)(C)c1nnc(-c2nn(-c3ccc(Cl)cc3Cl)c(-c3ccc(Cl)cc3)c2CF)o1

[7.63, 7.85, 6.74, 7.29, 7.83]
